- System: A549 cell line
- EXPERIMENTAL DETAILS: Cell growth inhibition of cancer cell lines (SRB assay), A549
- Assay type: cell-based
- TEST CONDITIONS: 2 μM compound, GI50 temozolomide alone / GI50 with compound
Counter-ions that a name gives are not always drawn.
Met means recorded Temozolomide PF50 is 2 or above; Not met means it is below 2.

Please review the following examples before continuing.
CCN(CC)Cc1ccc2c3c(c(=O)[nH]c2c1)CCCN3 [Example 42, dihydrochloride] : Met
COc1cccc2[nH]c(=O)c3c(c12)NCCC3.Cl : Met
COc1cc(CN(C)C)cc2[nH]c(=O)c3c(c12)NCCC3 [Example 72, dihydrochloride] : Met
CNCc1ccc2c3c(c(=O)[nH]c2c1)CCCN3 [Example 52, dihydrochloride] : Not met
CCOc1cc(CN2CCOCC2)cc2[nH]c(=O)c3c(c12)NCCC3 [Example 101, dihydrochloride] : Met

Now for a further compound.
## Task Would you say COc1cc(CN2CCOCC2)cc2[nH]c(=O)c3c(c12)NCCC3 [Example 74, dihydrochloride] shows Temozolomide PF50 at minimum 2?
## Result Met

Source listed as patent US8815891B2.
